Molecular target: recombinant CD38 (Homo sapiens)
Sequence (P28907 45-300): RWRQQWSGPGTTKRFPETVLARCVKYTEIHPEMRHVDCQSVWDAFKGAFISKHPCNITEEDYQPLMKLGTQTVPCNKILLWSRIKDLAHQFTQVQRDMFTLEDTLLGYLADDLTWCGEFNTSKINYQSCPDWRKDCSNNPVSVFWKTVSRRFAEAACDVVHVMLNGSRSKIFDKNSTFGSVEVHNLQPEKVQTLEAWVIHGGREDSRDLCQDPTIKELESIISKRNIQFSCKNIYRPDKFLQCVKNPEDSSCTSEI
Assay: Inhibition of the NADase
READOUT: pIC50
Scale explanation: pIC50 corresponds to minus log10 of a concentration expressed in moles per litre.

(Q) What measured pIC50 is associated with NC(=O)c1ccc[n+](COCCOc2ccc([N+](=O)[O-])cc2)c1.[Cl-] [Compound 5] on recombinant CD38 (Homo sapiens)?
(A) 2.25

(Q) Same question, COc1ccc(OCCOC[n+]2cccc(C(N)=O)c2)cc1.[Cl-] [Compound 3] this time
(A) 1.94

(Q) Same question, NC(=O)c1ccc2c(ccc[n+]2COCCOc2ccc(Oc3ccccc3)cc2)c1.[Cl-] [Compound 13] this time
(A) 2.67

(Q) Same question, NC(=O)c1ccc[n+](COCCOc2ccc(Oc3ccccc3)cc2)c1.[Cl-] [Compound 4] this time
(A) 2.47

(Q) Same question, NC(=O)c1c[n+](COCCOc2ccc(Oc3ccccc3)cc2)ccc1N.[Cl-] [Compound 14] this time
(A) 2.32
